Cited source for all entries: paper PMC4535883

- Experimental Target: T1, Redβ (single-strand annealing protein) (bacteriophage lambda, UniProt P03698 1-261)
- T1 sequence: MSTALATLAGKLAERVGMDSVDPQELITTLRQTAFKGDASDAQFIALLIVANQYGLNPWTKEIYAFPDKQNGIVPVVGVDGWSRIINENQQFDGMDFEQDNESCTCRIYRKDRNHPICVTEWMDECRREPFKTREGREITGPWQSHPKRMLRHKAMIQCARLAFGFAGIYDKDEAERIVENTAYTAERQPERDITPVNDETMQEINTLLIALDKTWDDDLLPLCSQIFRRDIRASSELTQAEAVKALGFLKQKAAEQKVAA
- Protocol Description: FCS/FCCS; per single binding site of Redβ monomer; global fit of isodesmic growth model; Buffer composition not in the material; optical tweezers at 29.2 °C
- Condition Description: protein: recombinant; tags: StrepII (stated for the purified protein used as western blot standard); label: Atto 655 (5')
Measure Name: Kd (µM)
Dear colleague, please return just the value in µM, with no unit written.

Query string: Give Kd for ATGCCTCTCACTCGTCATCTTGTTTAGTAT (ssDNA) [ssDNA FCS 30 b]
Result string: 5
